# Measurement Target: HLA-A*02:01 (Homo sapiens, UniProt P04439, D140Y/D185E/D98H/E176V/E277Q/G131W/G231S/I119V/I121R/I166T/I218V/L300P/L318F/N151K/N90K/P208A/P217A/Q86G/Q94H/R138H/R169H/T345S)
# Assay Details: MHC binding assay (UV-ligand exchange, β2m ELISA, peptide exchange yield)
# Assay Conditions: MHC class I binding score; binding to HLA-A*02:01 ranged by peptide exchange yield (UV-ligand exchange, β2m ELISA)
# Source text: Candidate peptides for T cell based therapies according to the present invention were further tested for their MHC binding capacity (affinity). The individual peptide-MHC complexes were produced by UV-ligand exchange, where a UV-sensitive peptide is cleaved upon UV-irradiation, and exchanged with the peptide of interest as analyzed. Only peptide candidates that can effectively bind and stabilize the peptide-receptive MHC molecules prevent dissociation of the MHC complexes. […]

Substance: 595 (VLLSIYPRV; listed as Homo sapiens) [compound 595]
Peptide exchange: “+++” (≧50 = +++)
//
Substance: 243 (LLLNELPSV; listed as Homo sapiens) [compound 243]
Peptide exchange: “+++” (≧50 = +++)
//
Substance: 206 (VLQEGKLQKLAQL; listed as Homo sapiens) [compound 206]
Peptide exchange: “+++” (≧50 = +++)
//
Substance: 71 (GILARIASV; listed as Homo sapiens) [compound 71]
Peptide exchange: “+++” (≧50 = +++)
//
Substance: 64 (YAAPGGLIGV; listed as Homo sapiens) [compound 64]
Peptide exchange: “++” (≧20% = ++)
//
Substance: 473 (AMATESILHFA; listed as Homo sapiens) [compound 473]
Peptide exchange: “+++” (≧50 = +++)
//
Substance: 385 (SLLEQGLVEA; listed as Homo sapiens) [compound 385]
Peptide exchange: “++” (≧20% = ++)
//
Substance: 283 (ALYIGDGYVIHLA; listed as Homo sapiens) [compound 283]
Peptide exchange: “+++” (≧50 = +++)
//
Substance: 355 (SIQQSIERLLV; listed as Homo sapiens) [compound 355]
Peptide exchange: “++” (≧20% = ++)
//
Substance: 53 (KMIETDILQKV; listed as Homo sapiens) [compound 53]
Peptide exchange: “++++” (≧75% = ++++)
//
Substance: 363 (KVLDVSDLESV; listed as Homo sapiens) [compound 363]
Peptide exchange: “++” (≧20% = ++)
//
Substance: 587 (VMNDRLYAI; listed as Homo sapiens) [compound 587]
Peptide exchange: “+++” (≧50 = +++)
//
Substance: 375 (SLTETIEGV; listed as Homo sapiens) [compound 375]
Peptide exchange: “++” (≧20% = ++)
//
Substance: 168 (KILDADIQL; listed as Homo sapiens) [compound 168]
Peptide exchange: “++++” (≧75% = ++++)
//
Substance: 344 (YLQDQHLLLTV; listed as Homo sapiens) [compound 344]
Peptide exchange: “+++” (≧50 = +++)
//
Substance: 405 (ALYDVFLEV; listed as Homo sapiens) [compound 405]
Peptide exchange: “++” (≧20% = ++)
//
Substance: 565 (ALQETPTSV; listed as Homo sapiens) [compound 565]
Peptide exchange: “++” (≧20% = ++)
//
Substance: 365 (YVIDQGETDVYV; listed as Homo sapiens) [compound 365]
Peptide exchange: “+++” (≧50 = +++)
//
Substance: 430 (HLYSSIEHLTT; listed as Homo sapiens) [compound 430]
Peptide exchange: “+++” (≧50 = +++)
//
Substance: 83 (ILAPTVMMI; listed as Homo sapiens) [compound 83]
Peptide exchange: “+++” (≧50 = +++)
//
Substance: 191 (LLQEGQALEYV; listed as Homo sapiens) [compound 191]
Peptide exchange: “++” (≧20% = ++)
//
Substance: 262 (LLWGDLIWL; listed as Homo sapiens) [compound 262]
Peptide exchange: “+++” (≧50 = +++)
//
Substance: 308 (SQYSGQLHEV; listed as Homo sapiens) [compound 308]
Peptide exchange: “+++” (≧50 = +++)
//
Substance: 1 (SLMEPPAVLLL; listed as Homo sapiens) [compound 1]
Peptide exchange: “+++” (≧50 = +++)
//
Substance: 50 (SLSELEALM; listed as Homo sapiens) [compound 50]
Peptide exchange: “+++” (≧50 = +++)
//
Substance: 305 (SIANFSEFYV; listed as Homo sapiens) [compound 305]
Peptide exchange: “++++” (≧75% = ++++)
//
Substance: 351 (SLIPNLRNV; listed as Homo sapiens) [compound 351]
Peptide exchange: “+++” (≧50 = +++)
//
Substance: 349 (SLTEYLQNV; listed as Homo sapiens) [compound 349]
Peptide exchange: “++++” (≧75% = ++++)
//
Substance: 117 (ILPDGEDFLAV; listed as Homo sapiens) [compound 117]
Peptide exchange: “+++” (≧50 = +++)
//
Substance: 254 (TLLAFIMEL; listed as Homo sapiens) [compound 254]
Peptide exchange: “+++” (≧50 = +++)
//
Substance: 176 (YLMEGSYNKVFL; listed as Homo sapiens) [compound 176]
Peptide exchange: “++” (≧20% = ++)

====

# Measurement Target: HLA-A*02:01 (Homo sapiens, UniProt P04439, D140Y/D185E/D98H/E176V/E277Q/G131W/G231S/I119V/I121R/I166T/I218V/L300P/L318F/N151K/N90K/P208A/P217A/Q86G/Q94H/R138H/R169H/T345S)
# Assay Details: MHC binding assay (UV-ligand exchange, β2m ELISA, peptide exchange yield)
# Assay Conditions: MHC class I binding score; binding to HLA-A*02:01 ranged by peptide exchange yield (UV-ligand exchange, β2m ELISA)

Substance: 459 (ALITEVVRL; listed as Homo sapiens) [compound 459]
Peptide exchange: “++” (≧20% = ++)
--
Substance: 391 (YVYPQRLNFV; listed as Homo sapiens) [compound 391]
Peptide exchange: “+++” (≧50 = +++)
--
Substance: 20 (RMIEYFIDV; listed as Homo sapiens) [compound 20]
Peptide exchange: “+++” (≧50 = +++)
--
Substance: 115 (AIAGAGILYGV; listed as Homo sapiens) [compound 115]
Peptide exchange: “++” (≧20% = ++)

====

# Measurement Target: HLA-A*02:01 (Homo sapiens, UniProt P04439, D140Y/D185E/D98H/E176V/E277Q/G131W/G231S/I119V/I121R/I166T/I218V/L300P/L318F/N151K/N90K/P208A/P217A/Q86G/Q94H/R138H/R169H/T345S)
# Assay Details: MHC binding assay (UV-ligand exchange, β2m ELISA, peptide exchange yield)
# Assay Conditions: MHC class I binding score; binding to HLA-A*02:01 ranged by peptide exchange yield (UV-ligand exchange, β2m ELISA)

Substance: 428 (KLGHTDILVGV; listed as Homo sapiens) [compound 428]
Peptide exchange: “++” (≧20% = ++)
//
Substance: 66 (FLDENIGGVAV; listed as Homo sapiens) [compound 66]
Peptide exchange: “+++” (≧50 = +++)
//
Substance: 28 (QLLDETSAITL; listed as Homo sapiens) [compound 28]
Peptide exchange: “+++” (≧50 = +++)
//
Substance: 396 (ALLPDLPAL; listed as Homo sapiens) [compound 396]
Peptide exchange: “+++” (≧50 = +++)
//
Substance: 80 (FLYDNLVESL; listed as Homo sapiens) [compound 80]
Peptide exchange: “++” (≧20% = ++)
//
Substance: 45 (SLWQDIPDV; listed as Homo sapiens) [compound 45]
Peptide exchange: “+++” (≧50 = +++)
//
Substance: 248 (FLFPNQYVDV; listed as Homo sapiens) [compound 248]
Peptide exchange: “+++” (≧50 = +++)
//
Substance: 492 (SLFDGFADGLGV; listed as Homo sapiens) [compound 492]
Peptide exchange: “+++” (≧50 = +++)
//
Substance: 107 (FLQPVDDTQHL; listed as Homo sapiens) [compound 107]
Peptide exchange: “+++” (≧50 = +++)
//
Substance: 377 (FLLDSSASV; listed as Homo sapiens) [compound 377]
Peptide exchange: “++” (≧20% = ++)
//
Substance: 491 (GLNDRSDAV; listed as Homo sapiens) [compound 491]
Peptide exchange: “++” (≧20% = ++)
//
Substance: 180 (FQIDPHSGLVTV; listed as Homo sapiens) [compound 180]
Peptide exchange: “++” (≧20% = ++)
//
Substance: 354 (LILEGVDTV; listed as Homo sapiens) [compound 354]
Peptide exchange: “++” (≧20% = ++)
//
Substance: 561 (YLQLTQSEL; listed as Homo sapiens) [compound 561]
Peptide exchange: “+++” (≧50 = +++)
//
Substance: 224 (TLIDAQWVL; listed as Homo sapiens) [compound 224]
Peptide exchange: “+++” (≧50 = +++)
//
Substance: 12 (SLWPDPMEV; listed as Homo sapiens) [compound 12]
Peptide exchange: “+++” (≧50 = +++)
//
Substance: 247 (VLLPNDLLEKV; listed as Homo sapiens) [compound 247]
Peptide exchange: “+++” (≧50 = +++)
//
Substance: 225 (SLLKVLPAL; listed as Homo sapiens) [compound 225]
Peptide exchange: “+++” (≧50 = +++)
//
Substance: 372 (TMLLNIPLV; listed as Homo sapiens) [compound 372]
Peptide exchange: “++” (≧20% = ++)
//
Substance: 184 (YLMDINGKMWL; listed as Homo sapiens) [compound 184]
Peptide exchange: “+++” (≧50 = +++)
//
Substance: 554 (LLMPSSEDLLL; listed as Homo sapiens) [compound 554]
Peptide exchange: “+++” (≧50 = +++)
//
Substance: 493 (GLLGEKTQDLIGV; listed as Homo sapiens) [compound 493]
Peptide exchange: “+++” (≧50 = +++)
//
Substance: 336 (ILLTAIVQV; listed as Homo sapiens) [compound 336]
Peptide exchange: “+++” (≧50 = +++)
//
Substance: 607 (RLYSGISGLEL; listed as Homo sapiens) [compound 607]
Peptide exchange: “+++” (≧50 = +++)
//
Substance: 313 (VLFDDELLMV; listed as Homo sapiens) [compound 313]
Peptide exchange: “+++” (≧50 = +++)
//
Substance: 81 (FLFSQLQYL; listed as Homo sapiens) [compound 81]
Peptide exchange: “++” (≧20% = ++)
//
Substance: 551 (KLYESLLPFA; listed as Homo sapiens) [compound 551]
Peptide exchange: “+++” (≧50 = +++)
//
Substance: 300 (ALLGQTFSL; listed as Homo sapiens) [compound 300]
Peptide exchange: “+++” (≧50 = +++)
//
Substance: 578 (FLDPGGPMMKL; listed as Homo sapiens) [compound 578]
Peptide exchange: “+++” (≧50 = +++)
//
Substance: 575 (YLISQVEGHQV; listed as Homo sapiens) [compound 575]
Peptide exchange: “+++” (≧50 = +++)
//
Substance: 2 (SLLEADPFL; listed as Homo sapiens) [compound 2]
Peptide exchange: “+++” (≧50 = +++)

Source listed as patent US20170002055A1.
